- System: IGROV1 ovarian
- PROTOCOL NOTES: NCI-60 one-dose screen, 48 h (100 = growth as untreated, 0 = no growth, -100 = all killed)
- EXPERIMENTAL CONDITIONS: 10 µM unless noted
Compounds without any hit were thinned out: in the full panel of roughly 83,000, 20% have a hit.
Criterion: growth meeting or surpassing 70%. Met: True. Not met: False.

Use these answered entries as a reference point.
# COMPOUND, GROUP LABEL
data = [
    ("C/C(=N/NC(N)=S)C(=O)O", "False"),
    ("COc1cc(/C=C2\\C(=O)N(CC(O)COc3cc(O)c4c(=O)cc(-c5ccccc5)oc4c3)c3ccccc32)cc(OC)c1O (stereo not given)", "False"),
    ("Nc1nc(N)c2nc3c(nc2n1)CCCCCCCCCC3", "False"),
]

Assess whether reported growth for C=C(C)[C@@H]1CC[C@]2(/C=N/Nc3ccncc3)CC[C@]3(C)[C@H](CC[C@@H]4[C@@]5(C)CCCNC(C)(C)[C@@H]5CC[C@]43C)[C@@H]12 sits at 70% or higher. True

Same again, this time with CCC1C(=O)COC1=O (stereo not given) True

Same again, this time with CCN(CC)C(=O)CCCCCn1c2ccccc2c2c3c(c4c5ccccc5[nH]c4c21)C(=O)N(O)C3=O False

Same again, this time with CCCC1CCCCN1C(=O)OCC(C)C (stereo not given) True

Same again, this time with Cc1ccc(/C=C(\C#N)c2cc3ccccc3n2C)cc1 False

Same again, this time with COc1cnc2c(c1)C(=O)c1c-2n(CCCNCCN2CCOCC2)c(=O)c2cc([N+](=O)[O-])ccc12 False
